B1: Peroxisome proliferator-activated receptor delta, residues 71 to 145; numbered along this chain, Q03181 (parent)
chain: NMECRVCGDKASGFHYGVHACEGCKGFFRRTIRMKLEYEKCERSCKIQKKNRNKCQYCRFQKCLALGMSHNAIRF

# Variants of: B1
# Test Details: abundance fitness (aPCA) (normalised: wild type 0, dead -1); higher = more abundant; growth selection in yeast, the domain comes from the species named
# Reported Conditions: Homo sapiens
Mark NO for abundance fitness values under -0.1, and YES for everything at or above.

Answer whether abundance fitness of M34W is greater than or equal to -0.1.
YES

Next:
Answer whether abundance fitness of K25Y is greater than or equal to -0.1.
YES

Answer whether abundance fitness of L64A is greater than or equal to -0.1.
NO

Answer whether abundance fitness of R5Q is greater than or equal to -0.1.
YES

Answer whether abundance fitness of N1H is greater than or equal to -0.1.
NO

Answer whether abundance fitness of Y16V is greater than or equal to -0.1.
NO

Answer whether abundance fitness of K54Y is greater than or equal to -0.1.
YES

Answer whether abundance fitness of S69D is greater than or equal to -0.1.
YES

Answer whether abundance fitness of I47G is greater than or equal to -0.1.
NO
